ASSAY_NAME: Phase 1 fixed-sequence drug-drug interaction study: plasma pharmacokinetics of single-dose fedratinib with and without fluconazole
Type: in vivo, human
CONDITIONS: both sexes, human, plasma, oral; fedratinib 100 mg + fluconazole 200 mg once daily, n = 5; read-out: AUC0–∞, geometric mean (geometric CV%)
PROPERTY_MEASURED: AUC(0-inf) (ng·h/mL)
Number only, in ng·h/mL; omit the unit.

Tell me measured AUC(0-inf) for Cc1cnc(Nc2ccc(OCCN3CCCC3)cc2)nc1Nc1cccc(S(=O)(=O)NC(C)(C)C)c1 [fedratinib] please. 4200

* * *

ASSAY_NAME: Phase 1 fixed-sequence drug-drug interaction study: plasma pharmacokinetics of single-dose fedratinib with and without fluconazole
Format: in vivo, human
CONDITIONS: both sexes, human, plasma, oral; 100 mg fedratinib + 200 mg fluconazole once daily (test), n = 16; read-out: Cmax, geometric mean from ANOVA model
PROPERTY_MEASURED: Cmax (µg/mL)
Number only, in µg/mL; omit the unit.

Tell me measured Cmax for Cc1cnc(Nc2ccc(OCCN3CCCC3)cc2)nc1Nc1cccc(S(=O)(=O)NC(C)(C)C)c1 [fedratinib] please. 0.146
